- EXPERIMENTAL TARGET: MOR (Homo sapiens, UniProt P35372)
- Sequence (P35372 whole entry): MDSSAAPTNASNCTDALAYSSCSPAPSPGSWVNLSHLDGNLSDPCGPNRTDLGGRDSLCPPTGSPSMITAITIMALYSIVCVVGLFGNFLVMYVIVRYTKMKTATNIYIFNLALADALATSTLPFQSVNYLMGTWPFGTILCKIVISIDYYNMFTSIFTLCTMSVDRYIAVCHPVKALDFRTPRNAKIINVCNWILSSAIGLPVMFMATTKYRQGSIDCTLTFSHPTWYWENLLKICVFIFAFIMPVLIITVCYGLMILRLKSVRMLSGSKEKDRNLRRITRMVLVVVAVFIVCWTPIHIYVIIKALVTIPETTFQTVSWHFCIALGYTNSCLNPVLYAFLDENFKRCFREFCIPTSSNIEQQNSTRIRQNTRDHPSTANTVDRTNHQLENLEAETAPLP
- TEST: cell-based
- Set-up: expressed in transfected cells; host or cells: CHO-K1/MOR/Ga15 cells
- EXPERIMENTAL PARAMETERS: CHO-K1/MOR/Ga15 cells; read-out: FLIPR Ca2+ EC50
READOUT: EC50

MOLECULE: O=C(NCC1NCCc2ccccc21)C1CCC1 (stereo not drawn)
EXPERIMENTAL TARGET: MOR (Homo sapiens, UniProt P35372)
EC50: 6.8 µM
//
MOLECULE: O=C(NCC1NCCc2ccccc21)c1cccc(F)c1 (stereo not drawn)
EXPERIMENTAL TARGET: MOR (Homo sapiens, UniProt P35372)
EC50: 0.78 µM
//
MOLECULE: O=C(NCC1NCCc2ccccc21)N1CCOCC1 (stereo not drawn)
EXPERIMENTAL TARGET: MOR (Homo sapiens, UniProt P35372)
EC50: 8.08 µM
//
MOLECULE: COc1ccccc1C(=O)NCC1NCCc2ccccc21 (stereo not drawn)
EXPERIMENTAL TARGET: MOR (Homo sapiens, UniProt P35372)
EC50: 3.31 µM
//
MOLECULE: O=C(NCC1c2ccccc2CCN1S(=O)(=O)c1ccc(Br)cc1C(F)(F)F)C1CCCCC1 (stereo not drawn)
EXPERIMENTAL TARGET: MOR (Homo sapiens, UniProt P35372)
EC50: 2.56 µM

Continue with the molecule presented below.
Data point: O=C(NCC1c2ccccc2CCN1S(=O)(=O)c1ccc(Br)cc1OC(F)(F)F)C1CC1 (stereo not drawn) ; EC50 = 5.03 µM

###

- EXPERIMENTAL TARGET: MOR (Homo sapiens, UniProt P35372)
- TEST: cell-based
- Parameters: expressed in transfected cells; host or cells: CHO-K1/MOR/Ga15 cells
- EXPERIMENTAL PARAMETERS: read-out: FLIPR Ca2+ EC50
Quick reference for EC50 among some molecules
Answer format: numeric, nM implied, no suffix.

Use these answered entries as a reference point.
MOLECULE: CCc1ccc(C(=O)NCC2NCCc3ccccc32)cc1 (stereo not shown)
UNIT SPEC: nM
EC50: 60
//
MOLECULE: Cc1ccc(C(=O)NCC2NCCc3ccccc32)cc1C (stereo not shown)
UNIT SPEC: nM
EC50: 120
//
MOLECULE: CN1CCc2ccccc2C1CNC(=O)c1ccc(Cl)c(Cl)c1 (stereo not shown)
UNIT SPEC: nM
EC50: 10
//
MOLECULE: O=C(NCC1NCCc2ccccc21)c1ccc(F)cc1 (stereo not shown)
UNIT SPEC: nM
EC50: 540
//
MOLECULE: Cc1ccc(C(=O)NCC2NCCc3ccccc32)cc1 (stereo not shown)
UNIT SPEC: nM
EC50: 140

Bench note, MOR (Homo sapiens, UniProt P35372): entry Cc1cccc(C(=O)NCC2NCCc3ccccc32)c1 (stereo not shown) , its EC50 = 370

MOR (Homo sapiens, UniProt P35372) EC50 of O=C(NCC1NCCc2ccccc21)c1ccc(OC(F)(F)F)cc1 (stereo not shown) is 370

The reported MOR (Homo sapiens, UniProt P35372) EC50 of COc1ccc(C(=O)NCC2NCCc3ccccc32)cc1 (stereo not shown) is 370

Item: O=C(NCC1NCCc2ccccc21)c1ccc(Cl)c(Cl)c1 (stereo not shown) | System: MOR (Homo sapiens, UniProt P35372) | EC50: 250

The observed EC50 for O=C(NCC1NCCc2ccccc21)c1ccc(Cl)cc1 (stereo not shown) when tested with MOR (Homo sapiens, UniProt P35372) stands at 230

###

- EXPERIMENTAL TARGET: MOR (Homo sapiens, UniProt P35372)
- TEST: cell-based
- Design: expressed in transfected cells; host or cells: CHO-K1/MOR/Ga15 cells
- EXPERIMENTAL PARAMETERS: CHO-K1/MOR/Ga15 cells; read-out: FLIPR Ca2+ EC50
READOUT: pEC50
Please report pEC50 as the negative decimal logarithm of the molar concentration, giving only the number.

MOLECULE: O=C(NCC1NCCc2ccccc21)C1CCCCC1 (stereo not shown) [Compound 5]
EXPERIMENTAL TARGET: MOR (Homo sapiens, UniProt P35372)
pEC50: 5.20
//
MOLECULE: COC1CCC(C(=O)NCC2NCCc3ccccc32)CC1 (stereo not shown) [Compound 42]
EXPERIMENTAL TARGET: MOR (Homo sapiens, UniProt P35372)
pEC50: 5.18
//
MOLECULE: COc1cccc(C(=O)NCC2NCCc3ccccc32)c1 (stereo not shown) [Compound 51]
EXPERIMENTAL TARGET: MOR (Homo sapiens, UniProt P35372)
pEC50: 6.07
//
MOLECULE: O=C(NCC1c2ccccc2CCN1S(=O)(=O)c1ccc(F)cc1C(F)(F)F)C1CCCCC1 (stereo not shown) [Compound 15]
EXPERIMENTAL TARGET: MOR (Homo sapiens, UniProt P35372)
pEC50: 5.23

get_value(item= O=C(NCC1c2ccccc2CCN1S(=O)(=O)c1ccc(Br)cc1OC(F)(F)F)C1CCCC1 (stereo not shown) [Compound 21] , readout=pEC50) returns 6.09

In plain terms, O=C(NCC1c2ccccc2CCN1S(=O)(=O)c1ccc(Br)cc1F)C1CCCCC1 (stereo not shown) [Compound 12] has a documented pEC50 of 5.02

###

- EXPERIMENTAL TARGET: MOR (Homo sapiens, UniProt P35372)
- TEST: cell-based
- Design: expressed in transfected cells; host or cells: CHO-K1/MOR/Ga15 cells
- EXPERIMENTAL PARAMETERS: FLIPR Ca2+ EC50, CHO-K1/MOR/Ga15 cells
READOUT: EC50

Memo: Cc1cc(Br)ccc1S(=O)(=O)N1CCc2ccccc2C1CNC(=O)C1CCCCC1 (stereo not shown) , reported EC50: 6.27 µM

###

- EXPERIMENTAL TARGET: human mu-opioid receptor (Homo sapiens)
- Sequence (P35372 whole entry): as above
- TEST: cell-based
READOUT: EC50 (nM)
Numeric only. Scale: nM

Reported EC50 for CN1CCc2ccccc2C1CNC(=O)c1ccc(Cl)c(Cl)c1 (stereo not shown) was 0.63

###

- EXPERIMENTAL TARGET: myc-tagged human MOR (Homo sapiens, UniProt P35372)
- Construct: myc
- Sequence (P35372 whole entry): as above
- TEST: cell-based
READOUT: pEC50
Convention used: pEC50 is expressed as -log10 of the molar concentration.

The recorded pEC50 for entry CN1CCc2ccccc2C1CNC(=O)c1ccc(Cl)c(Cl)c1 (stereo not shown) equals 7.22

###

- EXPERIMENTAL TARGET: MOR (Homo sapiens, UniProt P35372)
- TEST: cell-based
- Set-up: expressed in transfected cells; host or cells: CHO-K1/MOR/Ga15 cells
Below, each of the compounds is paired with its reported EC50 value.
Response body: numeric value in µM, unit text excluded.

Consider the worked cases shown below.
COMPOUND: Cc1ccc(S(=O)(=O)N2CCc3ccccc3C2CNC(=O)C2CCCCC2)cc1 (stereo not drawn)
EXPERIMENTAL TARGET: MOR (Homo sapiens, UniProt P35372)
EC50 (µM): 6.44
//
COMPOUND: O=C(NCC1c2ccccc2CCN1S(=O)(=O)c1ccc(Br)cc1Cl)C1CCCCC1 (stereo not drawn)
EXPERIMENTAL TARGET: MOR (Homo sapiens, UniProt P35372)
EC50 (µM): 5.61

Now for the compound whose EC50 we want.
response.value for O=C(NCC1c2ccccc2CCN1S(=O)(=O)c1ccc(Cl)cc1)C1CCCCC1 (stereo not drawn) (field: EC50) = 5.97

###

- EXPERIMENTAL TARGET: UniProtKB P35372
- TEST: cell-based
- Parameters: expressed in transfected cells; host or cells: CHO-K1/MOR/Ga15 cells
- EXPERIMENTAL PARAMETERS: area under the [Ca2+]i fluorescence response curve, up to 90 s
Collected FLIPR Ca2+ AUC values appear next to each entry.
Just the number.

Answered examples (3):
COMPOUND: O=C(NCC1c2ccccc2CCN1S(=O)(=O)c1ccc(Br)cc1OC(F)(F)F)N1CCCC1 (stereo not shown) [Compound 26]
EXPERIMENTAL TARGET: UniProtKB P35372
FLIPR Ca2+ AUC: 12484
--
COMPOUND: Cc1cc(F)ccc1S(=O)(=O)N1CCc2ccccc2C1CNC(=O)C1CCCCC1 (stereo not shown) [Compound 16]
EXPERIMENTAL TARGET: UniProtKB P35372
FLIPR Ca2+ AUC: 6213
--
COMPOUND: Cc1ccc(C(=O)NCC2c3ccccc3CCN2C)cc1 (stereo not shown) [Compound 61]
EXPERIMENTAL TARGET: UniProtKB P35372
FLIPR Ca2+ AUC: 14757

// FLIPR Ca2+ AUC value for COc1ccccc1C(=O)NCC1NCCc2ccccc21 (stereo not shown) [Compound 55] : 4312

The compound identified as O=C(NCC1c2ccccc2CCN1S(=O)(=O)c1ccc(Br)cc1OC(F)(F)F)C1CCCCC1 (stereo not shown) [Compound 6] registered its FLIPR Ca2+ AUC at 15139

Record summary for O=C(NCC1c2ccccc2CCN1S(=O)(=O)c1ccccc1OC(F)(F)F)C1CCCCC1 (stereo not shown) [Compound 13] : reported FLIPR Ca2+ AUC = 5152

CCCCN1CCc2ccccc2C1CNC(=O)c1ccc(C)cc1 (stereo not shown) [Compound 62] yielded FLIPR Ca2+ AUC of 14669

// FLIPR Ca2+ AUC value for O=C(NCC1NCCc2ccccc21)c1ccccc1 (stereo not shown) [Compound 45] : 8628

Reported FLIPR Ca2+ AUC ( O=C(NCC1c2ccccc2CCN1S(=O)(=O)c1ccc(Br)cc1OC(F)(F)F)N1CCCCC1 (stereo not shown) [Compound 25] ) = 10498

Noted for COc1ccc(S(=O)(=O)N2CCc3ccccc3C2CNC(=O)C2CCCCC2)cc1 (stereo not shown) [Compound 19] : its FLIPR Ca2+ AUC reads 3418

FLIPR Ca2+ AUC in this record for O=C(NCC1c2ccccc2CCN1S(=O)(=O)c1ccc(Br)cc1C(F)(F)F)C1CCCCC1 (stereo not shown) [Compound 7] : 7697
